The origin of these recorded values is BigSolDB 2.1.

Conditions: in isopropanol, 303.15 K
readout_name: solubility (mole fraction)
// return just the number, without any unit appended

Reported solubility (mole fraction) for COc1ccc(C=O)cc1O : what is it?
0.0259

###

Settings: in ethanol, 278.15 K
readout_name: solubility (mole fraction)
Enter a number only.

What value of solubility (mole fraction) has been reported for the following compound? COc1ccc(C=O)cc1O
0.0125

###

Conditions: in isobutanol, 318.15 K
readout_name: solubility (mole fraction)
// no unit, no text: just the number

For the compound COc1ccc(C=O)cc1O , what solubility (mole fraction) is on record?
0.0499

###

Conditions: in methanol, 298.15 K
readout_name: solubility (mole fraction)
Number only, please.

Requested read-out: solubility (mole fraction). Entry: COc1ccc(C=O)cc1O
0.0362
